Data origin, for the record: the supplement of paper PMC10567573

Exercise: state measured protein stability index for each of the variants provided.
B1: ZNF449 (parent)
chain: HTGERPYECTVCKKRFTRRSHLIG

- Variants of: B1
- experiment summary: protein stability index of a GFP-peptide fusion (GPS, HEK-293T) (PSI 1-6); higher = more stable;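 further: lentivirally expressed fusions sorted by FACS into six bins by GFP to DsRed ratio, PSI derived from sequencing read proportions per bin multiplied by bin number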
- cond: c terminus: a fixed tail appended
Lab note: record the figure alone, no unit after it.

protein stability index in this record for HTGEFPYECTVCKKRFTRRSHLIG [R5F] : 1.76

protein stability index in this record for HTGERPYECTVCKKRFSRRSHLIG [T17S] : 1.94

protein stability index in this record for HTGERPYECTVCKKRFTRRSHYIG [L22Y] : 2.33

protein stability index in this record for HHGERPYECTVCKKRFTRRSHLIG [T2H] : 3.18

protein stability index in this record for HAGERPYECTVCKKRFTRRSHLIG [T2A] : 2.85

protein stability index in this record for HTGERPYECTVCKKRFTRRSHNIG [L22N] : 2.08

protein stability index in this record for HTGERPYECTVCKKRFTMRSHLIG [R18M] : 1.5

protein stability index in this record for STGERPYECTVCKKRFTRRSHLIG [H1S] : 1.85

protein stability index in this record for HTGERPYECTVCKKRFTRRMHLIG [S20M] : 2.21

protein stability index in this record for HTGERPYECTVCKKRFNRRSHLIG [T17N] : 2.21

protein stability index in this record for HTGERPYECTVCKKRPTRRSHLIG [F16P] : 3.2
